- SYSTEM UNDER TEST: T1, human PD-1 expressed on cells (CHO human PD-1 cells) (human, UniProt Q15116 21-288)
- T1 construct: also called CHO TREX human PD-1 cell line; CHO PD-1
- T1 sequence (Q15116 21-288): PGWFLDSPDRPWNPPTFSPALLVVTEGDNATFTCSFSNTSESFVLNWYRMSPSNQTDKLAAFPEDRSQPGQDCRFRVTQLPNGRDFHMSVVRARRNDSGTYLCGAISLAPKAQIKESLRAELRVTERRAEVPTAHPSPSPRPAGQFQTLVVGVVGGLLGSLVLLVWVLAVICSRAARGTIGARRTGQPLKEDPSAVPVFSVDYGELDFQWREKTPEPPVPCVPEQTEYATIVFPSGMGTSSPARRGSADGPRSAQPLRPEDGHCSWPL
- METHOD: FMAT epitope competition on CHO human PD-1 cells; competitor 1 nM 1.1-Strep
Here the recorded IC50 is given for each entry.
Only the number, expressed in nM, is required.

For orientation, consider the following solved cases.
{"BINDER": "Humabody® 1.89 (VHH, human VH single domain antibody) VHH: EVQLVESGGGLVKPGGSLRLSCAASGFTFSDYSMTWMRQAPGKGLEWVSYISSGGGVKFYADSVKGRFTISRDNAKNSLYLQMNSLRAEDTAVYYCAREAPLRLGESPHDAFDISGQGTMVTVSS", "IC50 (nM)": 2.4}
{"BINDER": "Humabody® 1.98 (VHH, human VH single domain antibody) VHH: EVQLVESGGGLVKPGGSLRLSCAASGFTFSDKSMTWMRQAPGKGLEWVSYISSGGGVKFYADSVKGRFTISRDNAKNSLYLQMNSLRAEDTAVYYCAREAPLRLGESPHDAFDISGQGTMVTVSS", "IC50 (nM)": 1.1}

Alright, here's another binder for you.
Prompt line: Quick one: IC50 for Humabody® 1.42 (VHH, human VH single domain antibody) VHH: QVQLVESGGGLVKPGGSLRLSCAASGFTFSDNSMTWMRQAPGKGLEWVSYISSGGGVKFYADSVKGRFTISRDNAKNSLYLQMNSLRADDTAVYYCAREAPLRLGESPHDAFDIWGQGTMVTVSS ?
Response line: 3.5
